Test system: 777334-354-R2-J4-PDC tumor spheroids with HUVEC/MSC, viability
Assay: Anticancer human tumor 777334-354-R2-J4-PDC patient-derived pancreatic adenocarcinoma cell line growth inhibition [GQUAD]
Details: second compound 1 µM; first compound 0.1 µM; active compounds read low
Rule for this label: label 1 means viability, T/C is less than 80%; label 0 means viability, T/C is at least 80%.

| compound | label_value |
| --- | --- |
| C#Cc1c(F)ccc2cc(O)cc(-c3ncc4c(N5CC6CCC(C5)N6)nc(OCC56CCCN5CC(F)C6)nc4c3F)c12 (stereo unspecified) + Cc1cnc(CNC(=O)c2c(=O)c3ccc(N4CCCN(C)CC4)nc3n3c2sc2ccccc23)cn1 | label 1 |
| Nc1ccn(C2OC(CO)C(O)C2(F)F)c(=O)n1 (stereo unspecified) + Cc1cnc(CNC(=O)c2c(=O)c3ccc(N4CCCN(C)CC4)nc3n3c2sc2ccccc23)cn1 | label 1 |
| Nc1ccn(C2OC(CO)C(O)C2(F)F)c(=O)n1 (stereo unspecified) + CN(C)c1ccc(Nc2c3ccc(NC(=O)CCN4CCCC4)cc3nc3cc(NC(=O)CCN4CCCC4)ccc23)cc1 | label 1 |
| Cc1cccc(N(C)C(=O)C2C(O)CCN2c2nc(C)cc(C(F)(F)F)c2C#N)c1 (stereo unspecified) + CN(C)c1ccc(Nc2c3ccc(NC(=O)CCN4CCCC4)cc3nc3cc(NC(=O)CCN4CCCC4)ccc23)cc1 | label 0 |
| COc1cccc2c1C(=O)c1c(O)c3c(c(O)c1C2=O)CC(O)(C(=O)CO)CC3OC1CC(N)C(O)C(C)O1 (stereo unspecified) + Cc1[nH]c2ccc(F)cc2c1-c1nc2c3cccnc3c3ncccc3c2[nH]1 | label 1 |
| CC1COCCN1c1cc(-c2ccnn2C)c2ccnc(-c3ccn[nH]3)c2n1 (stereo unspecified) + CN(C)c1ccc(Nc2c3ccc(NC(=O)CCN4CCCC4)cc3nc3cc(NC(=O)CCN4CCCC4)ccc23)cc1 | label 1 |
| Cc1cccc(N(C)C(=O)C2C(O)CCN2c2nc(C)cc(C(F)(F)F)c2C#N)c1 (stereo unspecified) + Cc1cnc(CNC(=O)c2c(=O)c3ccc(N4CCCN(C)CC4)nc3n3c2sc2ccccc23)cn1 | label 1 |
| C=CCn1c(=O)c2cnc(Nc3ccc(N4CCN(C)CC4)cc3)nc2n1-c1cccc(C(C)(C)O)n1 + CN(C)c1ccc(Nc2c3ccc(NC(=O)CCN4CCCC4)cc3nc3cc(NC(=O)CCN4CCCC4)ccc23)cc1 | label 0 |
| COc1cc(C2c3cc4c(cc3C(OC3OC5COC(C)OC5C(O)C3O)C3COC(=O)C23)OCO4)cc(OC)c1O (stereo unspecified) + Cc1cnc(CNC(=O)c2c(=O)c3ccc(N4CCCN(C)CC4)nc3n3c2sc2ccccc23)cn1 | label 1 |
| O=c1[nH]cc(F)c(=O)[nH]1 + Cc1cnc(CNC(=O)c2c(=O)c3ccc(N4CCCN(C)CC4)nc3n3c2sc2ccccc23)cn1 | label 1 |
| CC(C)(O)C1CCC(Nc2ccc3ncc(-c4cccc(C(F)(F)F)c4)n3n2)CC1 (stereo unspecified) + Cc1[nH]c2ccc(F)cc2c1-c1nc2c3cccnc3c3ncccc3c2[nH]1 | label 1 |

----------
Listed here are compounds together with their documented viability, T/C.
Tested on: 777334-354-R2-J4-PDC tumor spheroids with HUVEC/MSC, viability
Test: Anticancer human tumor 777334-354-R2-J4-PDC cell line growth inhibition [GQUAD];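 further: spheroids exposed to compounds for 7 days before readout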
Conditions: second compound 1 µM; first compound 0.1 µM; active compounds read low

| compound | assayed_system | viability, T/C, % |
| --- | --- | --- |
| CC1COCCN1c1cc(-c2ccnn2C)c2ccnc(-c3ccn[nH]3)c2n1 (stereo not given) + Cc1cnc(CNC(=O)c2c(=O)c3ccc(N4CCCN(C)CC4)nc3n3c2sc2ccccc23)cn1 | 777334-354-R2-J4-PDC tumor spheroids with HUVEC/MSC, viability | 44.1 |
| COc1cc(C2c3cc4c(cc3C(OC3OC5COC(C)OC5C(O)C3O)C3COC(=O)C23)OCO4)cc(OC)c1O (stereo not given) + Cc1[nH]c2ccc(F)cc2c1-c1nc2c3cccnc3c3ncccc3c2[nH]1 | 777334-354-R2-J4-PDC tumor spheroids with HUVEC/MSC, viability | 78.7 |
| O=C(NO)c1cnc(N2CCN(S(=O)(=O)c3ccc4ccccc4c3)CC2)nc1 + CN(C)c1ccc(Nc2c3ccc(NC(=O)CCN4CCCC4)cc3nc3cc(NC(=O)CCN4CCCC4)ccc23)cc1 | 777334-354-R2-J4-PDC tumor spheroids with HUVEC/MSC, viability | 80.8 |
| C=CC(=O)N1CCN(c2nc(=O)n(-c3c(C)ccnc3C(C)C)c3nc(-c4c(O)cccc4F)c(F)cc23)C(C)C1 (stereo not given) + Cc1[nH]c2ccc(F)cc2c1-c1nc2c3cccnc3c3ncccc3c2[nH]1 | 777334-354-R2-J4-PDC tumor spheroids with HUVEC/MSC, viability | 79.8 |
| CC1COCCN1c1cc(C2(O)CC3CCC(C2)O3)c2cnn(-c3ccn[nH]3)c2n1 (stereo not given) + Cc1cnc(CNC(=O)c2c(=O)c3ccc(N4CCCN(C)CC4)nc3n3c2sc2ccccc23)cn1 | 777334-354-R2-J4-PDC tumor spheroids with HUVEC/MSC, viability | 46.1 |

----------
Listed here are compounds together with their documented viability, T/C.
Tested on: 777334-354-R2-J4-PDC tumor spheroids with HUVEC/MSC, viability
Assay: Anticancer human tumor 777334-354-R2-J4-PDC cell line growth inhibition [GQUAD];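 further: spheroids exposed to compounds for 7 days before readout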
Conditions: second compound 0.316 µM; first compound 0.316 µM; active compounds read low
parameter: viability, T/C

| compound | parameter | result |
| --- | --- | --- |
| O=c1[nH]cc(F)c(=O)[nH]1 + CN(C)c1ccc(Nc2c3ccc(NC(=O)CCN4CCCC4)cc3nc3cc(NC(=O)CCN4CCCC4)ccc23)cc1 | viability, T/C | 96.3% |
| O=C(NO)c1cnc(N2CCN(S(=O)(=O)c3ccc4ccccc4c3)CC2)nc1 + Cc1[nH]c2ccc(F)cc2c1-c1nc2c3cccnc3c3ncccc3c2[nH]1 | viability, T/C | 86.2% |
| CC1COCCN1c1cc(C2(O)CC3CCC(C2)O3)c2cnn(-c3ccn[nH]3)c2n1 (stereo not drawn) + CN(C)c1ccc(Nc2c3ccc(NC(=O)CCN4CCCC4)cc3nc3cc(NC(=O)CCN4CCCC4)ccc23)cc1 | viability, T/C | 53.2% |
| CC1COCCN1c1cc(C2(O)CC3CCC(C2)O3)c2cnn(-c3ccn[nH]3)c2n1 (stereo not drawn) + Cc1[nH]c2ccc(F)cc2c1-c1nc2c3cccnc3c3ncccc3c2[nH]1 | viability, T/C | 50.6% |
| CC(C)n1c(=O)n(C)c2cnc3cc(F)c(-c4ccc(OCCCN5CCCCC5)nc4)cc3c21 + Cc1[nH]c2ccc(F)cc2c1-c1nc2c3cccnc3c3ncccc3c2[nH]1 | viability, T/C | 90.3% |
| CC1COCCN1c1cc(C2(S(C)(=N)=O)CC2)nc(-c2ccnc3[nH]ccc23)n1 (stereo not drawn) + CN(C)c1ccc(Nc2c3ccc(NC(=O)CCN4CCCC4)cc3nc3cc(NC(=O)CCN4CCCC4)ccc23)cc1 | viability, T/C | 100% |
| CC[C@@]1(O)C(=O)OCc2c1cc1n(c2=O)Cc2cc3c(CN(C)C)c(O)ccc3nc2-1 + Cc1cnc(CNC(=O)c2c(=O)c3ccc(N4CCCN(C)CC4)nc3n3c2sc2ccccc23)cn1 | viability, T/C | 46% |
| CCc1c2c(nc3ccc(O)cc13)-c1cc3c(c(=O)n1C2)COC(=O)[C@]3(O)CC + Cc1cnc(CNC(=O)c2c(=O)c3ccc(N4CCCN(C)CC4)nc3n3c2sc2ccccc23)cn1 | viability, T/C | 10.3% |
| CC1COCCN1c1cc(C2(S(C)(=N)=O)CC2)nc(-c2ccnc3[nH]ccc23)n1 (stereo not drawn) + Cc1cnc(CNC(=O)c2c(=O)c3ccc(N4CCCN(C)CC4)nc3n3c2sc2ccccc23)cn1 | viability, T/C | 81.2% |
| CC1COCCN1c1cc(C2(S(C)(=N)=O)CC2)nc(-c2ccnc3[nH]ccc23)n1 (stereo not drawn) + Cc1[nH]c2ccc(F)cc2c1-c1nc2c3cccnc3c3ncccc3c2[nH]1 | viability, T/C | 88.3% |
| Cn1ncnc1[C@H]1c2n[nH]c(=O)c3cc(F)cc(c23)N[C@@H]1c1ccc(F)cc1 + Cc1[nH]c2ccc(F)cc2c1-c1nc2c3cccnc3c3ncccc3c2[nH]1 | viability, T/C | 74.7% |
| O=C(c1cc(Cc2n[nH]c(=O)c3ccccc23)ccc1F)N1CCN(C(=O)C2CC2)CC1 + Cc1cnc(CNC(=O)c2c(=O)c3ccc(N4CCCN(C)CC4)nc3n3c2sc2ccccc23)cn1 | viability, T/C | 69.7% |
| COc1cccc2c1C(=O)c1c(O)c3c(c(O)c1C2=O)CC(O)(C(=O)CO)CC3OC1CC(N)C(O)C(C)O1 (stereo not drawn) + Cc1cnc(CNC(=O)c2c(=O)c3ccc(N4CCCN(C)CC4)nc3n3c2sc2ccccc23)cn1 | viability, T/C | 63.3% |
